# tested.target: Epidermal growth factor receptor (Homo sapiens) (UniProt P00533)
# Sequence (P00533 whole entry, looked up): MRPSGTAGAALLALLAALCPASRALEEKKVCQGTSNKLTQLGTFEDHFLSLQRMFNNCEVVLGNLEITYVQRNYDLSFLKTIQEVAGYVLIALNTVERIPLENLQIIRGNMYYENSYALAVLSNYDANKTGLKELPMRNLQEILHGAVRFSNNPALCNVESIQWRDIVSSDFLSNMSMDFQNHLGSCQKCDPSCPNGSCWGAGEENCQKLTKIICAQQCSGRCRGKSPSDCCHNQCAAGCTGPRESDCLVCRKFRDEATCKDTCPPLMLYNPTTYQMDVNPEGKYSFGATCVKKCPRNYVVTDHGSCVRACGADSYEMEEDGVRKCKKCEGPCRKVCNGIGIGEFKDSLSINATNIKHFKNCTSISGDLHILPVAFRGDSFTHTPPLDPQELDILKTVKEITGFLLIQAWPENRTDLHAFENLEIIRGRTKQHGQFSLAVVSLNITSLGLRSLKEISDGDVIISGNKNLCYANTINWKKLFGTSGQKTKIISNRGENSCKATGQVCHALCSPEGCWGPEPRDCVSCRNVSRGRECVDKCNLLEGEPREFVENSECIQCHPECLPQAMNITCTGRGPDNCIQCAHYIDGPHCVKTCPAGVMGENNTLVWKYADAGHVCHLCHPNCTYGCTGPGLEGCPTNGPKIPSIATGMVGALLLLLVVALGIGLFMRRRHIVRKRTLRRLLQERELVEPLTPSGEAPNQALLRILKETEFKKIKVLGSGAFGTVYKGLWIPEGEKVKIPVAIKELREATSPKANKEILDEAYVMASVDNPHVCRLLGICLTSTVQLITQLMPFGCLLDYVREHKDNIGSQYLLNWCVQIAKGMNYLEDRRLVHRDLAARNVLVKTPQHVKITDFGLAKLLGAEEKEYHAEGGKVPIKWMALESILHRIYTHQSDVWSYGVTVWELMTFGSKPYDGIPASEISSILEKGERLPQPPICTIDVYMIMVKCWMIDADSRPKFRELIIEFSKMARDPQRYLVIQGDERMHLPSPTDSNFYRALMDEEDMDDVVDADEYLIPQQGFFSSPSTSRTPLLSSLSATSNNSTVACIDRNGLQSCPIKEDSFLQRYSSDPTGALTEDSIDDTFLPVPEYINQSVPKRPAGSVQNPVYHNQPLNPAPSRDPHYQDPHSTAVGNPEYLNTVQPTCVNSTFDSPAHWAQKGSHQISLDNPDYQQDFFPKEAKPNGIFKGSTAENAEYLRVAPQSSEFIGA
# method.description: EGFR binders on small-molecule microarrays, primary screen, biochemical, small-molecule microarray, 635 nm fluorescence (AID 1104);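 further: score merges 667 nm emission intensity with spot signal to noise over triplicate slides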
# conditions.used: EGFR binding, higher = more signal
Consider the following molecules and their measured composite z-score readings.
measured.parameter: composite z-score

compound.structure	value.observed
C=CCNC(=O)[C@H]1[C@@H]2C(=O)O[C@@H](c3ccccc3)[C@@H](c3ccccc3)N2[C@@H](c2ccccc2OCCO)[C@]12C(=O)N(C(=O)OCCOC)c1ccc(C#CCC(C(=O)OC)C(=O)OC)cc12	0.328
CO[C@@H]1COC(=O)[C@H](C)NC(=O)CC=C[C@@H](C)[C@H](OC)COC(=O)[C@H](C)NC(=O)CC=C[C@H]1C	0.55
O=C(CS)NCCCCCCNC(=O)[C@@H]1C[C@@H]2C(=O)N[C@@H](Cc3ccccc3)C(=O)N2[C@@H]1c1ccc(O)cc1	0.411

* * *

# tested.target: Follistatin-related protein 3 (Homo sapiens)
# method.description: FSTL3 binders on small-molecule microarrays, primary screen, biochemical, small-molecule microarray, 635 nm fluorescence (AID 1105);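 further: score merges emission near 667 nm and signal to noise per printed spot across three slides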
# conditions.used: FSTL3 binding, higher = more signal
Consider the following compounds and their measured composite z-score readings.

compound	composite z-score
C[C@@H]1CC[C@H]2C(=O)N3[C@@H](CC[C@@H](C)[C@@H]3c3cccc(N4CCOCC4)c3)C(=O)N2[C@H]1c1cccc(N2CCOCC2)c1	1.12
COCCOC(=O)N1C(=O)[C@@]2(c3cc(C#CCNC(N)=O)ccc31)[C@H](c1ccccc1OCCO)N1[C@H](c3ccccc3)[C@H](c3ccccc3)OC(=O)[C@H]1[C@@H]2C(=O)NC[C@H](O)c1ccccc1	1
COc1cc2c(cc1OC)CN(C(=O)[C@H]1[C@@H]3C(=O)O[C@@H](c4ccccc4)[C@@H](c4ccccc4)N3[C@@H](c3ccccc3OCCO)[C@]13C(=O)Nc1ccc(C#CC4(O)CCCCCC4)cc13)CC2	0.564
O=C1C2C=CC(C(O)C(c3ccccc3)c3ccccc3)N(Nc3ccc([N+](=O)[O-])cc3)C2C(=O)N1c1ccccc1 (stereo not drawn)	0.955
COC(=O)[C@@]1(Cc2ccc(OC)cc2)[C@H]2c3cc(C(=O)N(C)C)n(Cc4ccc(C)c(F)c4F)c3C[C@H]2CN1C(=O)c1ccccc1	0.0502
CN1C(=O)C2C=CC(C(O)C3CC=CCC3)N(Nc3ccccc3)C2C1=O (stereo not drawn)	1.45
O=C1OCC=C[C@H]2OC34C=CCN(Cc5ccccc5)C(=O)[C@H]3N(CCCCCO)C(=O)[C@@H]4[C@@H]12 (stereo partly drawn)	-0.647
CC(=O)NCCCC[C@@H]1NC(=O)[C@H]2C[C@@H](C(=O)NCCCCCCN(C)C)[C@@H](c3cccc(OCCO)c3)N2C1=O	1.1
C=C(CCCC)/C(=C/C[C@H](OC(=O)c1ccncc1)c1cccc(OCCO)c1)c1cc(C(=O)OC)ccc1OC	0.611
CO[C@H]1COC(=O)[C@@H](Cc2ccccc2)NC(=O)[C@@H](C)COC(=O)CC=C[C@@H]1C	0.439
COCCOC(=O)N1C(=O)[C@@]2(c3cc(C#CCC(C(=O)OC)C(=O)OC)ccc31)[C@H](c1ccccc1OCCO)N1[C@H](c3ccccc3)[C@H](c3ccccc3)OC(=O)[C@H]1[C@@H]2C(=O)N1CCCCCCC1	1.56
Cc1ccc(S(=O)(=O)c2cc3oc2CC[C@@H](CO)NC(=O)N(C)Cc2cn(nn2)C[C@H](Cc2ccccc2)NC3=O)cc1	-0.233
CCN1C(C)=C(C(=O)OC)[C@@H](c2ccccc2)N2C(=O)[C@@]3(C(=O)OC)O[C@@]12[C@@H]1C(=O)CCC[C@@H]13	1.06
